- Test Method Notes: Pharmacokinetic evaluation in rat (clearance)
- Type: in vivo
- Assay Context: male, Sprague-Dawley (SD), serum, iv, dose 27.5 mg/kg, read-out: Pharmacokinetics Clearance (converted)
Property: clearance (mL/min/kg)
Give just the number in mL/min/kg; leave the unit off.

Given the compound NCCSCc1nc(N)sc1SC1=C(C(=O)O)N2C(=O)[C@@H](NC(=O)/C(=N\O)c3nc(N)sc3Cl)[C@H]2SC1 [Cmpd 3] , what is its reported clearance?
15.8

----------
- Test system: E. coli ATCC25992
Property: MIC (mg/L)
Give just the number in mg/L; leave the unit off.

Solved cases below.
>>> print(df.to_string())
                                   compound  readout_units  reported
0  NCCSc1cncc(SC2=C(C(=O)O)N3C(=O)C(NC(=O)/C(=N\O)c4cccc(N)n4)C3SC2)n1 (stereo not shown)           mg/L        16
1  NCCSCc1nnc(SC2=C(C(=O)O)N3C(=O)[C@@H](NC(=O)/C(=N\O)c4nc(N)sc4Cl)[C@H]3SC2)s1           mg/L         1
2  NCCSCc1cnccc1SC1=C(C(=O)O)N2C(=O)[C@@H](NC(=O)/C(=N\O)c3nsc(N)n3)[C@H]2SC1           mg/L       0.5
3  NCCSCc1csc(SC2=C(C(=O)O)N3C(=O)[C@@H](NC(=O)/C(=N\O)c4cccc(N)n4)[C@H]3SC2)n1           mg/L         4
4  NCCSCc1cnccc1SC1=C(C(=O)O)N2C(=O)[C@@H](NC(=O)/C(=N\O)c3nc(N)sc3Cl)[C@H]2SC1           mg/L         8

MIC of COc1nc(CSCCN)c(SC2=C(C(=O)O)N3C(=O)[C@@H](NC(=O)/C(=N\O)c4cccc(N)n4)[C@H]3SC2)s1 on E. coli ATCC25992?
32

MIC of NCCSc1nnc(SC2=C(C(=O)O)N3C(=O)[C@@H](NC(=O)/C(=N\O)c4nc(N)sc4Cl)[C@H]3SC2)s1 on E. coli ATCC25992?
0.5

MIC of Cc1nc(CSCCN)c(SC2=C(C(=O)O)N3C(=O)[C@@H](NC(=O)/C(=N\O)c4cccc(N)n4)[C@H]3SC2)s1 on E. coli ATCC25992?
32

MIC of NCCSCc1cnccc1SC1=C(C(=O)O)N2C(=O)C(NC(=O)/C(=N\O)c3csc(N)n3)C2SC1 (stereo not shown) on E. coli ATCC25992?
4

MIC of NCCSCc1nsc(SC2=C(C(=O)O)N3C(=O)[C@@H](NC(=O)/C(=N\O)c4nc(N)sc4Cl)[C@H]3SC2)n1 on E. coli ATCC25992?
4

MIC of N=C(N)NCCSCc1cnccc1SC1=C(C(=O)O)N2C(=O)[C@@H](NC(=O)/C(=N\O)c3nsc(N)n3)[C@H]2SC1 on E. coli ATCC25992?
1

MIC of NCCSc1nccnc1SC1=C(C(=O)O)N2C(=O)C(NC(=O)/C(=N\O)c3cccc(N)n3)C2SC1 (stereo not shown) on E. coli ATCC25992?
4

MIC of NCCSCc1cnccc1SC1=C(C(=O)O)N2C(=O)[C@@H](NC(=O)/C(=N\O)c3cccc(N)n3)[C@H]2SC1 on E. coli ATCC25992?
16

----------
- Tested on: S. haemolyticus 05 (Meth^R)
- Test Method Notes: Broth microdilution MIC (NCCLS)
- Assay type: cell-based
- Assay Context: Staphylococcus haemolyticus
Entries and their measured MIC follow.
Give just the number in µg/mL; leave the unit off.

>>> df
                                   compound                 study_target  property  readout_units  reported
0  NCCSCc1nc(N)sc1SC1=C(C(=O)O)N2C(=O)[C@@H](NC(=O)/C(=N\O)c3nc(N)sc3Cl)[C@H]2SC1 [Cmpd 3]  S. haemolyticus 05 (Meth^R)       MIC          µg/mL         1
1  N=C(N)NCCSCc1nc(N)sc1SC1=C(C(=O)O)N2C(=O)[C@@H](NC(=O)/C(=N\O)c3nc(N)sc3Cl)[C@H]2SC1 [Cmpd 26]  S. haemolyticus 05 (Meth^R)       MIC          µg/mL       0.5
2  NCCSCc1cnccc1SC1=C(C(=O)O)N2C(=O)C(NC(=O)/C(=N\O)c3csc(N)n3)C2SC1 (stereo not drawn) [Cmpd 19]  S. haemolyticus 05 (Meth^R)       MIC          µg/mL         4

Given the compound NCCSc1nccc(SC2=C(C(=O)O)N3C(=O)[C@@H](NC(=O)/C(=N\O)c4cccc(N)n4)[C@H]3SC2)n1 [Cmpd 8] , what is its reported MIC?
32

Given the compound NCCSCc1cnccc1SC1=C(C(=O)O)N2C(=O)[C@@H](NC(=O)/C(=N\O)c3cccc(N)n3)[C@H]2SC1 [Cmpd 24] , what is its reported MIC?
2

Given the compound NCCSCc1nc(SCCN)sc1SC1=C(C(=O)O)N2C(=O)[C@@H](NC(=O)/C(=N\O)c3nc(N)sc3Cl)[C@H]2SC1 [Cmpd 11] , what is its reported MIC?
0.5

----------
- Test Method Notes: Pharmacokinetic evaluation in rat (clearance)
- Format: in vivo
- Assay Context: male, Sprague-Dawley (SD), serum, iv, dose 20.0 mg/kg, read-out: Pharmacokinetics Clearance (converted)
- Source text: Four male SD rats with femoral and jugular vein catheters were obtained from Hilltop Lab Animals, Inc. (Scottdale, Pa.). The catheters in the femoral and jugular veins were filled with 10 units/mL heparin in saline, and kept patent by changing the solution daily. The animals were quarantined for a minimum of two days prior to use, and were maintained on a 12-h light:dark schedule with constant access to food and water before and during the study. […]
Classify: yes when clearance is strictly less than 30 mL/min/kg; no when clearance is not.

In [3]: df
Out[3]:
                            compound_smiles  class_assignment
0  NCCSCc1cnccc1SC1=C(C(=O)O)N2C(=O)[C@@H](NC(=O)/C(=N\O)c3cccc(N)n3)[C@H]2SC1                no
1  N=C(N)NCCSCc1cnccc1SC1=C(C(=O)O)N2C(=O)[C@@H](NC(=O)/C(=N\O)c3nsc(N)n3)[C@H]2SC1               yes
2  NCCSCc1cnccc1SC1=C(C(=O)O)N2C(=O)[C@@H](NC(=O)/C(=N\O)c3nc(N)sc3Cl)[C@H]2SC1               yes
3  NCCSCc1cnccc1SC1=C(C(=O)O)N2C(=O)[C@@H](NC(=O)/C(=N\O)c3nsc(N)n3)[C@H]2SC1                no

Hi there! Is clearance for NCCSCc1ccncc1SC1=C(C(=O)O)N2C(=O)[C@@H](NC(=O)/C(=N\O)c3nc(N)sc3Cl)[C@H]2SC1 below 30 mL/min/kg, do you know?
yes

Hi there! Is clearance for NCCSCc1ncccc1SC1=C(C(=O)O)N2C(=O)[C@@H](NC(=O)/C(=N\O)c3nc(N)sc3Cl)[C@H]2SC1 below 30 mL/min/kg, do you know?
yes

Hi there! Is clearance for NCCSCc1ncsc1SC1=C(C(=O)O)N2C(=O)[C@@H](NC(=O)/C(=N\O)c3cccc(N)n3)[C@H]2SC1 below 30 mL/min/kg, do you know?
yes

----------
- System: human serum proteins
- Test Method Notes: Serum binding determination by ultrafiltration/HPLC
- Assay type: in vitro ADME
- Assay Context: by HPLC
// thresholds for Serum Binding human (% of compound bound to serum) classes: bottom end = under 70%, midrange = from 70% up to 90%, top end = 90% and over

Molecule	Class Assignment
NCCSCc1cnccc1SC1=C(C(=O)O)N2C(=O)[C@@H](NC(=O)/C(=N\O)c3nsc(N)n3)[C@H]2SC1	bottom end
NCCSCc1nc(Cl)sc1SC1=C(C(=O)O)N2C(=O)[C@@H](NC(=O)/C(=N\O)c3cccc(N)n3)[C@H]2SC1	top end

Dear colleague, I would appreciate it if you could identify the bin for CN[C@H](CC(C)C)C(=O)N[C@H]1C(=O)N[C@@H](CC(N)=O)C(=O)N[C@H]2C(=O)N[C@H]3C(=O)N[C@H](C(=O)N[C@H](C(=O)O)c4cc(O)cc(O)c4-c4cc3ccc4O)[C@H](O)c3ccc(c(Cl)c3)Oc3cc2cc(c3O[C@@H]2O[C@H](CO)[C@@H](O)[C@H](O)[C@H]2O[C@H]2C[C@](C)(N)[C@H](O)[C@H](C)O2)Oc2ccc(cc2Cl)[C@H]1O [Van., Vancomycin, reference compound] and reply at your convenience.
bottom end

Dear colleague, I would appreciate it if you could identify the bin for NCCSCc1nc(SCCN)sc1SC1=C(C(=O)O)N2C(=O)[C@@H](NC(=O)/C(=N\O)c3nc(N)sc3Cl)[C@H]2SC1 and reply at your convenience.
midrange

Dear colleague, I would appreciate it if you could identify the bin for N=C(N)NCCSCc1ncccc1SC1=C(C(=O)O)N2C(=O)[C@@H](NC(=O)/C(=N\O)c3nc(N)sc3Cl)[C@H]2SC1 and reply at your convenience.
midrange

Dear colleague, I would appreciate it if you could identify the bin for NCCSCc1ncsc1SC1=C(C(=O)O)N2C(=O)[C@@H](NC(=O)/C(=N\O)c3cccc(N)n3)[C@H]2SC1 and reply at your convenience.
top end

Dear colleague, I would appreciate it if you could identify the bin for N=C(N)NCCSCc1cnccc1SC1=C(C(=O)O)N2C(=O)[C@@H](NC(=O)/C(=N\O)c3nsc(N)n3)[C@H]2SC1 and reply at your convenience.
bottom end

Dear colleague, I would appreciate it if you could identify the bin for NCCSCc1cnccc1SC1=C(C(=O)O)N2C(=O)[C@@H](NC(=O)/C(=N\O)c3nc(N)sc3Cl)[C@H]2SC1 and reply at your convenience.
midrange

Dear colleague, I would appreciate it if you could identify the bin for N=C(N)NCCSCc1ncccc1SC1=C(C(=O)O)N2C(=O)[C@@H](NC(=O)/C(=N\O)c3nsc(N)n3)[C@H]2SC1 and reply at your convenience.
bottom end

Dear colleague, I would appreciate it if you could identify the bin for NCCSCc1ncccc1SC1=C(C(=O)O)N2C(=O)[C@@H](NC(=O)/C(=N\O)c3nsc(N)n3)[C@H]2SC1 and reply at your convenience.
bottom end
